system: HOP-92 NSCLC; test: NCI tumour cell line growth inhibition, 48 h; in the data active means GI50 below about 0.43 µM; inactive means the rest
Tick one outcome: active, inactive

molecule=O=C1Nc2ccccc2/C1=C/C(=O)c1coc2c1C(=O)c1ccccc1C2=O target_system="HOP-92 NSCLC" assigned_label=inactive
molecule=COc1ccc(-c2cc(=O)[nH]c3c(OC)c4ccccc4c(OC)c23)cc1 target_system="HOP-92 NSCLC" assigned_label=active
molecule=CCC[CH2][Sn]1([CH2]CCC)[O]C(=O)c2cccnc2[O]1 target_system="HOP-92 NSCLC" assigned_label=inactive
molecule=COc1ccc2nc3cccc([N+](=O)[O-])c3c(NCCCCCC(=O)O)c2c1 target_system="HOP-92 NSCLC" assigned_label=active
molecule=COc1cc(CSc2nc3ccc(C)cc3c(=O)n2-c2ccccc2)cc(OC)c1OC target_system="HOP-92 NSCLC" assigned_label=inactive

Could you now look at the following molecule, please?
Per the records of this test, what outcome belongs to c1ccc2[nH]c(-c3ccc(-c4nccc5c4[nH]c4ccccc45)cc3)nc2c1 ?
inactive

* * *

system: SF-295 CNS; assay: NCI tumour cell line growth inhibition, 48 h
MEASURED PARAMETER: TGI

These recorded examples may help you get a feel for the data.
molecule=CN1C(=Nc2ccccc2)SC1=Nc1ccccc1 obs_value="> 100 µM"
molecule="O=C1CCC2C(O)c3cc4c(cc3C(c3ccc5c(c3)OCO5)N12)OCO4 (stereo unspecified)" obs_value="> 100 µM"
molecule=CN1CCc2[nH]c3ccccc3c2C1 obs_value="> 100 µM"

Reported TGI of O=C1CCCCC/C1=C\c1cccc(Cl)c1 : 50.2 µM

Reported TGI of COC1CC(OS(=O)(=O)c2ccc([N+](=O)[O-])cc2)C(OC(=O)c2ccccc2)C(C)O1 (stereo unspecified) : > 100 µM

Reported TGI of C=CCN1C(=O)/C(=C/c2ccc(OC)cc2)N=C1SC/C=C/C : > 100 µM

Reported TGI of CC(C)(C)n1cc(-c2ccnc(NCCCNS(=O)(=O)c3ccc(C(F)(F)F)cc3)c2)c(-c2cccc(O)c2)n1 : 3.12 µM

Reported TGI of COc1ccc2n[se]nc2c1 : > 100 µM

* * *

system: DU-145 prostate; assay: NCI tumour cell line growth inhibition, 48 h; in the data active = GI50 below about 0.43 µM; inactive = the rest
Tick one outcome: active, inactive

Here are 4 compounds together with their reported answers.
compound=COc1cnc2c(c1)C(=O)c1c-2n(CCCn2ccnc2)c(=O)c2cc(F)ccc12 target_system="DU-145 prostate" assigned_label=active
compound=COc1ccc2c(c1)c(=O)oc1cc(OC/C(C)=N\O)ccc12 target_system="DU-145 prostate" assigned_label=inactive
compound="Cc1cc(O)c(C(C)C)cc1S(=O)(=O)O (tested in a mixture with another compound)" target_system="DU-145 prostate" assigned_label=active
compound=COC(=O)c1nc(-c2ccccc2)oc1S(=O)(=O)Cc1ccccc1 target_system="DU-145 prostate" assigned_label=inactive

Per the records of this test, what outcome belongs to COc1ccc2cc(C(=O)/C=C/c3ccc(Cl)cc3Cl)ccc2c1 ?
inactive

Per the records of this test, what outcome belongs to C=C(C)C(=O)Nc1ccc(NC(C)C)cc1 ?
inactive

Per the records of this test, what outcome belongs to Cc1nn2c(/C=C3\C(=O)Nc4ccc(Cl)cc43)c(C)nc2s1 ?
inactive

Per the records of this test, what outcome belongs to Fc1ccc2c(c1)C1=NN(c3ccccc3)C(F)C1CO2 (stereo unspecified) ?
inactive

Per the records of this test, what outcome belongs to COc1ccc2nc3cccc([N+](=O)[O-])c3c(NCCCCCC(=O)O)c2c1 ?
active

Per the records of this test, what outcome belongs to O=[N+]([O-])O.[Cu+2].[NH-]CC[NH-].[NH-]CC[NH-] ?
inactive

Per the records of this test, what outcome belongs to Nc1c(C(=O)c2cccc(-c3ccncc3)c2)cnn1-c1ccc(F)cc1F ?
inactive

Per the records of this test, what outcome belongs to O=C(CCCCCCCCC(=O)N/N=C\c1ccccc1O)N/N=C\c1ccccc1O ?
inactive

Per the records of this test, what outcome belongs to COc1ccc(-c2cn(-c3cc(OC)c(OC)c(OC)c3)c(SCc3ccccc3)n2)cc1OC ?
inactive

Per the records of this test, what outcome belongs to COc1cc(CSc2nc3ccc(C)cc3c(=O)n2-c2ccccc2)cc(OC)c1OC ?
inactive

Per the records of this test, what outcome belongs to COc1ccc(-c2nc(-c3nc4ccc(OC)cc4[nH]3)c3ccccn23)cc1 ?
inactive

Per the records of this test, what outcome belongs to CC(C)(C)OC(=O)N1CCN(CCn2cc(C(F)(F)F)c3c(Cl)ncnc32)CC1 ?
inactive

* * *

tested on: HCT-116 colon; test: NCI tumour cell line growth inhibition, 48 h; in the data active means GI50 below about 0.43 µM; inactive means the rest
Tick one outcome: active, inactive

query_smiles=C[C@H]1[C@H](C)CC[C@]2(CO)CC[C@]3(C)C(=CC[C@@H]4[C@@]5(C)CCCNC(C)(C)[C@@H]5CC[C@]43C)[C@H]12 assigned_label=inactive
query_smiles=CN[C@@H](C)C(=O)N[C@H](C(=O)N1CCC[C@H]1C(=O)Nc1snnc1-c1ccccc1)C1CCCCC1 assigned_label=inactive
query_smiles=COc1ccc(-c2cn(-c3cc(OC)c(OC)c(OC)c3)c(SCc3ccccc3)n2)cc1OC assigned_label=inactive
query_smiles=Cc1cc2c(cc1C)N(C(=O)CCl)CC(=O)N2 assigned_label=inactive
query_smiles=COc1ccc(CN2c3ccccc3Sc3ccccc32)c(F)c1 assigned_label=active

Per the records of this test, what outcome belongs to COC(=O)c1nc(-c2ccccc2)oc1S(=O)(=O)Cc1ccccc1 ?
inactive

Per the records of this test, what outcome belongs to COc1cc(/C=C/C(=O)c2cccc(Nc3nc(Nc4ccccc4)nc(Nc4ccccc4)n3)c2)cc(OC)c1OC ?
inactive

Per the records of this test, what outcome belongs to CN(C)CCN1C(=O)c2ccccc2N(C)c2ccccc21 ?
inactive

* * *

tested on: NCI-H23 lung; test: NCI tumour cell line growth inhibition, 48 h
Catalogue of GI50 values

These recorded examples may help you get a feel for the data.
compound=COc1cc2c(cc1C)NC(=O)/C2=C/c1ccccn1 target_system="NCI-H23 lung" obs_value="2.76 µM"
compound=Cc1c(C(N)=O)sc2c1C(=O)N(Cc1ccccc1)C1=NN=C(c3ccc(Cl)cc3)CN12 target_system="NCI-H23 lung" obs_value="3.86 µM"
compound="Cc1cc(O)c(C(C)C)cc1S(=O)(=O)O (tested in a mixture with another compound)" target_system="NCI-H23 lung" obs_value="0.427 µM"
compound=Cc1cc2c(cc1C)N(C(=O)CCl)CC(=O)N2 target_system="NCI-H23 lung" obs_value="3.41 µM"
compound=O=[N+]([O-])O.[Cu+2].[NH-]CC[NH-].[NH-]CC[NH-] target_system="NCI-H23 lung" obs_value="> 10 µM"

Reported GI50 of CCCCCCCCCCCCCCCCCCOc1ccccc1CC(=O)OCC[N+]1(C)CCCCC1 : 1.8 µM

* * *

system: OVCAR-8 ovarian; assay: NCI tumour cell line growth inhibition, 48 h
MEASURED PARAMETER: TGI

compound=Cc1cc2c(cc1C)N(C(=O)CCl)CC(=O)N2 target_system="OVCAR-8 ovarian" obs_value="10.8 µM"
compound=COc1ccc2n[se]nc2c1 target_system="OVCAR-8 ovarian" obs_value="> 100 µM"
compound="O=C1CCC2C(O)c3cc4c(cc3C(c3ccc5c(c3)OCO5)N12)OCO4 (stereo unspecified)" target_system="OVCAR-8 ovarian" obs_value="> 100 µM"

Reported TGI of COc1ccc2[nH]c(O)c(N=NC(=O)c3oc4ccccc4c3C)c2c1 : > 100 µM

Reported TGI of CCOC(=O)c1cnc2oc3ccc(O)cc3c2c1C : > 100 µM

Reported TGI of CC(CCN)(CCN)[N+](=O)[O-] : > 100 µM

Reported TGI of COc1ccc2[nH]cc(CCNC(=O)[C@H](Cc3ccccc3)NC(=O)[C@@H](NCC(F)(F)F)C(C)C)c2c1 : 54.4 µM

Reported TGI of O=C1C(Cl)C2(CC(/C=C/c3ccccc3Cl)=NN2c2cccc(S(=O)(=O)O)c2)N1c1nc2ccccc2s1 (stereo unspecified) : > 100 µM

* * *

Catalogue of TGI values
tested on: BT-549 breast; test: NCI tumour cell line growth inhibition, 48 h

These recorded examples may help you get a feel for the data.
compound="COc1cc(NC(C)CCCNC2CN3CCC2CC3)c2ncccc2c1 (centres undefined)" target_system="BT-549 breast" obs_value="29.3 µM"
compound=CN(C)CCN1C(=O)c2ccccc2N(C)c2ccccc21 target_system="BT-549 breast" obs_value="> 100 µM"
compound=COC(=O)/C=C(/C)n1nc2ccccc2n1 target_system="BT-549 breast" obs_value="> 100 µM"
compound=C(=C\c1cccs1)/c1cccc(/C=C/c2cccs2)n1 target_system="BT-549 breast" obs_value="> 100 µM"
compound=CCc1c2c([nH]c(=S)c1C#N)CCC2 target_system="BT-549 breast" obs_value="> 100 µM"
compound=CN[C@@H](C)C(=O)N[C@H](C(=O)N1CCC[C@H]1C(=O)Nc1snnc1-c1ccccc1)C1CCCCC1 target_system="BT-549 breast" obs_value="> 81.5 µM"

Reported TGI of Cc1ccc(Nc2n[nH]c(=S)s2)cc1C : > 100 µM

Reported TGI of CN(C)CCCSc1nc2ccccc2[nH]1 : > 100 µM

Reported TGI of O=C(Nc1ccc(Cl)cc1)NS(=O)(=O)c1coc2cc(F)ccc2c1=O : > 100 µM

Data provenance is PubChem BioAssay (NCI).
